# systemUnderTest: Voltage-gated inwardly rectifying potassium channel KCNH2 (Homo sapiens, UniProt Q12809)
# Sequence (Q12809 whole entry): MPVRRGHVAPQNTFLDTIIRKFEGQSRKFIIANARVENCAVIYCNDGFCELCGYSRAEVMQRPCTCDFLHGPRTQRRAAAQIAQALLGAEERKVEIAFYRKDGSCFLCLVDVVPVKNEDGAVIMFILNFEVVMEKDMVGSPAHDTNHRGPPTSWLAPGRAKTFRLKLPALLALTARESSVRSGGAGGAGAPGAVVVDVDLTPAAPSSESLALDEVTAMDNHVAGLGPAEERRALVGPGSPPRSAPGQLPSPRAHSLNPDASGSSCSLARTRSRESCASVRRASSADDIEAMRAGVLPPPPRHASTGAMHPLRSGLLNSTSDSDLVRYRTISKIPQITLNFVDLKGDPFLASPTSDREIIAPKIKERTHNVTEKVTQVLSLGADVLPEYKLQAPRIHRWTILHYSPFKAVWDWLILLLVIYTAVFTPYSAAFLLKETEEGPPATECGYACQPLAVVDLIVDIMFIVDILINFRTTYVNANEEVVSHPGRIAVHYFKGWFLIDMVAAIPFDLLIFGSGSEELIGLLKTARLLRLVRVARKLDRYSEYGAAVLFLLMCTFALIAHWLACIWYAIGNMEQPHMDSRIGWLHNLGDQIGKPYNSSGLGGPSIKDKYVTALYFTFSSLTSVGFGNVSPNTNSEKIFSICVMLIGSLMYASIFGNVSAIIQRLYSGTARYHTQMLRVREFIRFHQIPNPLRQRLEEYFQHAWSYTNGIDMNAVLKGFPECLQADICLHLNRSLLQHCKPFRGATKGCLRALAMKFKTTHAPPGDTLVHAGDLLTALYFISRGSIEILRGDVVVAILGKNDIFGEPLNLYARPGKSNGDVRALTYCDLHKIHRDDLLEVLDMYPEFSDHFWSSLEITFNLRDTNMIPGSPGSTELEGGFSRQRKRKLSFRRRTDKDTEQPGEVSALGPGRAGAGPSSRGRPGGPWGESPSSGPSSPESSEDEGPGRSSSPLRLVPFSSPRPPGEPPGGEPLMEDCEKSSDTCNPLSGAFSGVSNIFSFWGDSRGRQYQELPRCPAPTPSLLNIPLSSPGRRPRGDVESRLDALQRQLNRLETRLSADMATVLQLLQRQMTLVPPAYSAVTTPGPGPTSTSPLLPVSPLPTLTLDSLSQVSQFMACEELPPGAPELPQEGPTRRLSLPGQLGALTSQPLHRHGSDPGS
# assayProcedure: Inhibition of human ERG channel expressed in HEK293 cells after 15 mins by whole-cell patch clamp technique
# Type: cell-based
pIC50: −log10 of the molar value.
parameter: pIC50

> print(dat)
                       chemsmiles  parameter  recordedvalue
1  CCCCCCCN(CC)CC#CCCc1ccc(Cl)cc1      pIC50           7.28

----------
# systemUnderTest: hERG (KCNH2) (Homo sapiens, UniProt Q12809)
# assayProcedure: Displacement of [3H]astemizole from human ERG channel expressed in HEK293 cell membrane at 10 uM after 1 hr by scintillation counting analysis
# conditionContext: membranes of HEK293 cells that express hERG, probe [3H]astemizole
parameter: inhibition at 1 h, 10 µM (%)

> print(dat)
                    chemsmiles                 parameter  recordedvalue
1  CCCCN(CC)CC#CC#Cc1ccc(C)cc1  inhibition at 1 h, 10 µM             47
2      CCCCN(CC)CC#CCCc1ccccc1  inhibition at 1 h, 10 µM             48

----------
# systemUnderTest: hERG (KCNH2) (Homo sapiens)
# assayProcedure: Ratio of Ki for human ERG channel expressed in HEK293 cell membrane after 1 hr by scintillation counting analysis to IC50 for human ERG channel expressed in HEK293 cells after 15 mins by whole-cell patch clamp technique
# Format: cell membranes
parameter: selectivity ratio

> print(dat)
                       chemsmiles  recordedvalue
1  CCCCCCCN(CC)CC#CCCc1ccc(Cl)cc1              2

----------
# systemUnderTest: Voltage-gated inwardly rectifying potassium channel KCNH2 (Homo sapiens, UniProt Q12809)
pKi: −log10 of the molar value.
parameter: pKi

> print(dat)
                       chemsmiles  recordedvalue
1  CCCCCCCN(CC)CC#CCCc1ccc(Cl)cc1           6.83

----------
# systemUnderTest: Voltage-gated inwardly rectifying potassium channel KCNH2 (Homo sapiens, UniProt Q12809)
# assayProcedure: Displacement of [3H]astemizole from human ERG channel expressed in HEK293 cell membrane after 1 hr by scintillation counting analysis
pIC50: −log10 of the molar value.
Each entry below carries its recorded pIC50.
parameter: pIC50

> print(dat)
                               chemsmiles  parameter  recordedvalue
 1         CCCCCCCN(CC)CC#CCCc1ccc(Cl)cc1      pIC50           6.12
 2       CCCCCCCN(CC)C/C=C/CCc1ccc(Cl)cc1      pIC50           6.62
 3           CCCCN(CC)CC#CCOCc1ccc(Cl)cc1      pIC50           5.13
 4         CCCCCCCN1CCC(C(=O)c2ccccc2)CC1      pIC50           6.91
 5    CCCCCCC[N+](CC)(CC)CC#Cc1ccc(Cl)cc1      pIC50           7.40
 6             CCCCN(CC)CC#CCCc1ccc(C)cc1      pIC50           5.25
 7         CCCCCCCN(CC)C/C=C/c1ccc(Cl)cc1      pIC50           6.61
 8             CCCCCCCN(CC)CC#CCCc1ccccc1      pIC50           5.36
 9            CCCCN(CC)C/C=C/c1ccc(Cl)cc1      pIC50           5.98
10  CCCCCCCN(CC)CC#CCOC(c1ccccc1)c1ccccc1      pIC50           6.01
11           CCCCCCCN(CC)CC#Cc1ccc(Cl)cc1      pIC50           5.39
